The reported measurements were obtained from patent US20240132578A1.

Here the recorded IC50 (µg/mL), pseudovirus neutralization is given for each entry.
# ASSAY TARGET: HIV-1 Env of isolate MGRM-C-004 (subtype C) (HIV-1)
# ASSAY SUMMARY: cell-based or functional assay
Answer with a number only, understood to be in µg/mL.

// solved cases for IC50 (µg/mL), pseudovirus neutralization follow
BINDER | IC50 (µg/mL), pseudovirus neutralization
PGT-126 (antibody, V domains shown) VH: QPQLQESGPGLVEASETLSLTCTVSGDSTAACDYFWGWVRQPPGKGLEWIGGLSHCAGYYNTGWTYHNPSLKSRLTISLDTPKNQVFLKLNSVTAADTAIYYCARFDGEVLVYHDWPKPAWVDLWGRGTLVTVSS VL: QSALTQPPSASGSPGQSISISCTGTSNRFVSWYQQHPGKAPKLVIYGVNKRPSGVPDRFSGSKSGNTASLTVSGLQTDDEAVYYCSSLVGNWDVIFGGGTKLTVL | 0.033
PGT-123 (antibody, V domains shown) VH: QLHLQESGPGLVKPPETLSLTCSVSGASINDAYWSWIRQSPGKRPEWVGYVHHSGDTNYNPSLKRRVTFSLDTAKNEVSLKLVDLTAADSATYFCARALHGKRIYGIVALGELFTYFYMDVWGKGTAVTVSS VL: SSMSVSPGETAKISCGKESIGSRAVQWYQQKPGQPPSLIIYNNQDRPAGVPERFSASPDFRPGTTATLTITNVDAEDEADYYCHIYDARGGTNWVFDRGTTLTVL | 0.009
PGT-125 (antibody, V domains shown) VH: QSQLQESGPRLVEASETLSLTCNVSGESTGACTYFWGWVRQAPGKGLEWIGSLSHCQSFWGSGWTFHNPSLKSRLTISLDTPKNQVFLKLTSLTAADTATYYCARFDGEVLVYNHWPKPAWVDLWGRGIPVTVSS VL: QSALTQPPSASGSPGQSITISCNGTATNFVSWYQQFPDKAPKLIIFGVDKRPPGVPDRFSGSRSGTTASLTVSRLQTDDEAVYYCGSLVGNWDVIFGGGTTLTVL | 1.82

Attention now shifts to the item below.
Q: Give its IC50 (µg/mL), pseudovirus neutralization value. Item: PGT-127 (antibody, V domains shown) VH: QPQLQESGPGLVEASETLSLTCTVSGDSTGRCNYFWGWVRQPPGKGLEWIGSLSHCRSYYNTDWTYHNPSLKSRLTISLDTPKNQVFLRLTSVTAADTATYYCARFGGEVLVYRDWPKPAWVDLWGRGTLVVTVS VL: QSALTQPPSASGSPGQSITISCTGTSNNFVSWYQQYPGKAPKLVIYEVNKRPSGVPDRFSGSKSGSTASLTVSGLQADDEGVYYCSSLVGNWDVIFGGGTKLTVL
A: 0.532
